- System: NCI-60 cell lines
- Assay type: cell-based, human
Measurement Kind: Cell Line with which the peptide (and its tripeptide motif) is associated

Please review the entries below; each comes with its answer.
| Substance | System Tested | Readout Value |
| --- | --- | --- |
| GLVGFTG | NCI-60 cell lines | Hop-62-Lung |
| LRVGIGY | NCI-60 cell lines | H23-Lung |
| STSLGAG | NCI-60 cell lines | H322-Lung |
| RFTRSSG | NCI-60 cell lines | A549-Lung |
| VAWRGVS | NCI-60 cell lines | A549-Lung |
| DVRAVSS | NCI-60 cell lines | EKVX-Lung |
| EVIGSGI | NCI-60 cell lines | A549-Lung |
| VNLGGSW | NCI-60 cell lines | H322-Lung |
| RGSVRVL | NCI-60 cell lines | HL-60-Leukemia |
| RGARVSA | NCI-60 cell lines | Molt-4-Leukemia |

Item `GEHLGGS` with NCI-60 cell lines - Cell Line with which the peptide (and its tripeptide motif) is associated?
SR Leukemia

What about this substance? `RSGSSVY`
H23-Lung

What about this substance? `LRSGAGS`
Molt-4-Leukemia

What about this substance? `EPDGVRS`
CCRF-CEM Leukemia

* * *

- Test system: NCI-60 cell lines
- Type: cell-based, human
Measurement Kind: Cell Line with which the peptide (and its tripeptide motif) is associated

| Substance | Readout Value |
| --- | --- |
| LRSGRGS | RPMI-8226-Leukemia |
| VWGVGGS | K-562-Leukemia |
| GRYSLRS | RPMI-8226-Leukemia |
| RQTTGAV | K-562-Leukemia |

* * *

- System: NCI-60 cell lines
- Assay type: cell-based, human
Measurement Kind: Cell Line with which the peptide (and its tripeptide motif) is associated

| Substance | Readout Value |
| --- | --- |
| LGQCGRV | HL-60-Leukemia |
| EQLSGVR | CCRF-CEM Leukemia |
| PRSSLVV | H460-Lung |
| PGKRGVQ | H460-Lung |
| SDENGRL | HL-60-Leukemia |

Item `RALGLVS` with NCI-60 cell lines - Cell Line with which the peptide (and its tripeptide motif) is associated?
CCRF-CEM Leukemia

What about this substance? `ERGSPSR`
H460-Lung

What about this substance? `AVRGVAR`
HL-60-Leukemia

* * *

- Tested on: NCI-60 cell lines
- Type: cell-based, human
Measurement Kind: Cell Line with which the peptide (and its tripeptide motif) is associated

Please review the entries below; each comes with its answer.
| Substance | Readout Value |
| --- | --- |
| AEPRGRV | H460-Lung |
| SWRPLVS | Hop-62-Lung |
| THRNRSS | SR Leukemia |
| WAGLSPS | Hop-92-Lung |
| PRSSYNE | H460-Lung |
| LGGRADF | CCRF-CEM Leukemia |
| KRESGLG | Hop-62-Lung |
| LRSSGAT | H322-Lung |

# input substance: `DWWAGVR` ; wanted: its Cell Line with which the peptide (and its tripeptide motif) is associated
CCRF-CEM Leukemia

What about this substance? `RGVASRS`
H460-Lung

What about this substance? `PKAGRGS`
Hop-62-Lung

What about this substance? `LIRAVSA`
H460-Lung

What about this substance? `LRRSSFS`
K-562-Leukemia
